# System: Chordin-like protein 2 (CHRDL2)
# measurementDescription: CHRDL2 small-molecule binders, primary screen, biochemical, small-molecule microarray, 635 nm fluorescence (AID 1126);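 also: printed compound slides probed with Chrdl2 protein at 4 µg/mL for 1 h at 4 C; score merges 667 nm emission intensity with signal to noise over three replicate slides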
# testConditions: small-molecule microarray binding, fluorescence 635 nm; higher = more signal
Hi there, I'd appreciate the recorded composite z-score for every entry that follows.
Answers are plain numbers.

Sample records with composite z-score:
>>> measuredvalue("COC(=O)Cn1c(C(=O)N(C)C)cc2c1C[C@H]1CN(C(=O)c3ccccc3)[C@@](Cc3ccc(F)cc3)(C(=O)OC)[C@@H]21")
0.0171
>>> measuredvalue("[N-]=[N+]=NCc1ccccc1C[C@@]1(C(=O)NCc2ccccc2)N=C(c2ccc(OCCCO)cc2)O[C@@H]1c1ccccc1N=[N+]=[N-]")
-1.06

List composite z-score for every entry below, keeping the order given.
1. O=C1NC(=O)C2C1C=CC(C(O)c1cccc3ccccc13)N2Nc1ccc(Cl)cc1Cl (centres undefined)
2. Cc1cc(C)cc(N2C(=O)CSC2c2cccc([N+](=O)[O-])c2)c1 (centres undefined)

Solution:
[-0.155, 0.052]

* * *

Hi there, I'd appreciate the recorded composite z-score for every entry that follows.
# Tested on: Lefty1
# measurementDescription: Lefty1 binders on small-molecule microarrays, primary screen, biochemical, small-molecule microarray, 635/667 nm fluorescence (AID 1139)
# testConditions: small-molecule microarray binding, fluorescence 635/667; higher = more signal
Numbers only.

Sample records with composite z-score:
>>> measuredvalue("[N-]=[N+]=NCc1ccccc1[C@H]1OC(c2ccc(OCCCO)cc2)=N[C@@]1(CCS(=O)(=O)c1ccccc1)C(=O)N1CCCCC1")
0.53
>>> measuredvalue("COC(=O)[C@@]1(Cc2ccccc2)[C@H]2c3cc(C(=O)N(C)C)n(CCc4ccc(O)c(OC)c4)c3C[C@H]2CN1C(=O)c1ccccc1")
0.0511

List composite z-score for every entry below, keeping the order given.
1. CCCCO[C@H]1C[C@H]2C(I)=C[C@@H]1C(=O)[C@]21CO1
2. CCCC[C@@H]1C[C@H]1[C@@H](NC(=O)c1ccccc1)c1ccc(C(F)(F)F)cc1

Solution:
1: 0.351; 2: -0.549

* * *

# measurementDescription: P. aeruginosa biofilm formation inhibitors, primary screen, PAO1 strain, BacTiter-Glo luminescence, LB-PBS (AID 1144)
# testConditions: 12 h, higher = more signal
Short version: z-score at least -0.3 is TRUE, less is FALSE.

Known results for molecules:
>>> discretelabel("O=C1NC(=O)C2C1C=CC(C(O)c1cccc3ccccc13)N2Nc1ccc(Cl)cc1Cl (stereo not drawn)")
"FALSE"
>>> discretelabel("CCCCCCc1nc(C2CC2)cc2c1[Si](C(C)C)(C(C)C)O[C@H]2c1ccccc1")
"TRUE"
>>> discretelabel("O=C(NCC(F)(F)F)[C@@H]1c2ccccc2C(=O)N(Cc2ccc(OC(F)(F)F)cc2)[C@H]1c1ccc(CO)cc1")
"FALSE"
>>> discretelabel("Cn1cccc1C(O)C1C=CC2C(=O)NC(=O)C2N1Nc1ccc(Cl)cc1Cl (stereo not drawn)")
"FALSE"
>>> discretelabel("CC(C)N1C(=O)c2ccccc2[C@@H](C(=O)NC2CC2)[C@@H]1c1ccc(CO)cc1")
"TRUE"
>>> discretelabel("CC(C)(C)OC(=O)CC[C@@]1(C(=O)NCc2ccccc2)N=C(c2ccc(OCCCO)cc2)O[C@@H]1c1ccccc1N=[N+]=[N-]")
"TRUE"

Problem: Reported z-score at or above -0.3? O=C1OCCC=C[C@H]2OC34C=CCN(Cn5nnc6ccccc65)C(=O)[C@H]3N(CCCCCCO)C(=O)[C@@H]4C12 (stereo partly drawn)
Solution: TRUE

Problem: // repeat for `CN(C)CCCCNC(=O)[C@@H]1C[C@@H]2C(=O)N[C@@H](Cc3ccccc3)C(=O)N2[C@@H]1c1cccc(OCCO)c1` and report
Solution: TRUE
